# Test system: Podosphaera leucotricha
# Experiment: Podosphaera test (apple)/protective
# Assay type: in vivo
# Run conditions: protective, application rate 1 g/ha, evaluation 10 days after inoculation
# Procedure: Podosphaera test (apple)/protective Solvent: 47 parts by weight of acetone Emulsifier: 3 parts by weight of alkylaryl polyglycol ether To produce a suitable preparation of active compound, 1 part by weight of active compound is mixed with the stated amounts of solvent and emulsifier, and the concentrate is diluted with water to the desired concentration. To test for protective activity, young plants are sprayed with the preparation of active compound at the stated application rate. […]
# Efficacy in % values compiled below
Write the number in % without appending the unit.

Please review the following examples before continuing.
- Compound: "Fc1ccc(C2(Cn3nc[nH]c3=S)OC2c2ccccc2Cl)cc1 (stereo not shown) [A, reference compound]"
  Unit abbreviation: "%"
  Recorded measurement: 57
- Compound: "CCOCCCNC(=O)n1cnn(CC2(c3ccc(F)cc3)OC2c2ccccc2Cl)c1=S (stereo not shown)"
  Unit abbreviation: "%"
  Recorded measurement: 65
- Compound: "CC(C)NC(=O)n1cnn(CC2(c3ccc(F)cc3)OC2c2ccccc2Cl)c1=S (stereo not shown)"
  Unit abbreviation: "%"
  Recorded measurement: 80

Moving on to the next compound.
IN: For the compound COCCNC(=O)n1cnn(CC2(c3ccc(F)cc3)OC2c2ccccc2Cl)c1=S (stereo not shown) , give its measured Efficacy in % value.
OUT: 88

###

# System: Podosphaera leucotricha
# Experiment: Podosphaera test (apple)/protective
# Assay type: in vivo
# Run conditions: protective, application rate 10 g/ha, evaluation 10 days after inoculation
# Efficacy in % values compiled below
Write the number in % without appending the unit.

Please review the following examples before continuing.
- Compound: "CCOCCCNC(=O)n1cnn(CC2(c3ccc(F)cc3)OC2c2ccccc2Cl)c1=S (stereo not shown)"
  Efficacy in %, %: 100
- Compound: "COCCNC(=O)n1cnn(CC2(c3ccc(F)cc3)OC2c2ccccc2Cl)c1=S (stereo not shown)"
  Efficacy in %, %: 100
- Compound: "Fc1ccc(C2(Cn3nc[nH]c3=S)OC2c2ccccc2Cl)cc1 (stereo not shown) [A, reference compound]"
  Efficacy in %, %: 92

Moving on to the next compound.
IN: For the compound CC(C)NC(=O)n1cnn(CC2(c3ccc(F)cc3)OC2c2ccccc2Cl)c1=S (stereo not shown) , give its measured Efficacy in % value.
OUT: 100
